Test system: cisplatin-resistant ovarian carcinoma (A2780R)
Test: in vitro cytotoxicity, MTT assay
Format: cell-based, human
Conditions: mean ± SD, at least three independent experiments
pIC50: −log10 of the molar value.
reported_metric: pIC50

compound | result_operator | reported_result
N.N.[Cl][Pt][Cl] [cisplatin, reference compound] | < | 4.10
CC(C)=CCc1c2c(c3occ(-c4ccc(O)c(O)c4)c(=O)c3c1[O-])C=CC(C)(C)O2.CO.CO.O=[N+]([O-])[O-].[Cu+2].c1cnc2c(c1)ccc1cccnc12 [Complex 3] | = | 5.54
CC(C)=CCc1c2c(c3occ(-c4ccc(O)c(O)c4)c(=O)c3c1[O-])C=CC(C)(C)O2.CO.O=[N+]([O-])[O-].[Cu+2].c1ccc(-c2ccnc3c2ccc2c(-c4ccccc4)ccnc23)cc1 [Complex 4] | = | 5.18
CC(C)=CCc1c2c(c3occ(-c4ccc(O)c(O)c4)c(=O)c3c1[O-])C=CC(C)(C)O2.Cc1ccnc(-c2cc(C)ccn2)c1.O.O.O=[N+]([O-])[O-].[Cu+2] [Complex 2] | = | 5.28
CC(C)=CCc1c2c(c3occ(-c4ccc(O)c(O)c4)c(=O)c3c1[O-])C=CC(C)(C)O2.CO.CO.O=[N+]([O-])[O-].[Cu+2].c1ccc(-c2ccccn2)nc1 [Complex 1] | = | 5.25

These entries and their values trace back to paper PMC8305652.
